Quick list: composite z-score per entry.
tested on: Lefty1; assay: Lefty1 protein binding to printed compounds – biochemical, small-molecule microarray, 635/667 nm fluorescence, primary screen (AID 1139); conditions: fluorescence 635/667, higher = more signal
Could you keep your reply to the number by itself?

Below are worked cases with known answers.
COMPOUND	TESTED_SYSTEM	composite z-score
O=C1O[C@@H](c2ccccc2)[C@@H](c2ccccc2)N2[C@@H](c3ccccc3OCCO)[C@]3(C(=O)Nc4ccc(C#CCCO)cc43)[C@@H](C(=O)NC[C@H](O)c3ccccc3)[C@H]12	Lefty1	0.831
COc1ccc([Si](C)(C)[C@@H]2[C@@H](CC(=O)N(CCO)Cc3ccccc3)O[C@]3(C(=O)N(Cc4ccc(N5C(=O)c6cccc7cccc5c67)cc4)c4ccccc43)[C@H]2C)cc1	Lefty1	0.449
COCCOC(=O)N1C(=O)[C@@]2(c3cc(C#CCC(C(=O)OC)C(=O)OC)ccc31)[C@H](C(=O)Nc1nc3ccccc3s1)[C@H]1C(=O)O[C@H](c3ccccc3)[C@H](c3ccccc3)N1[C@@H]2c1ccc(O)cc1	Lefty1	1.29

Problem: # returns recorded composite z-score (system: Lefty1) for C=CCN1C(=O)[C@]2(O[C@H](CCn3cc([C@H](O)c4ccccc4)nn3)[C@@H]([Si](C)(C)c3ccc(OC)cc3)[C@@H]2C)c2cc(NC(=O)c3ccc(OC)cc3)ccc21
Solution: 0.794

Problem: Okay, and COC(=O)[C@@]1(Cc2ccccc2)[C@H]2c3cc(C(=O)N4CCCC4)n(Cc4ccc(OC)c(OC)c4)c3C[C@H]2CN1C(=O)c1ccccc1 ?
Solution: -0.115

Problem: Try this compound next: N#Cc1ccc(NN2C(C(O)C3CC=CCC3)C=CC3C(=O)N(c4ccccc4)C(=O)C32)cc1 (stereo unspecified)
Solution: 0.361

----------
target: Fibroblast growth factor 2 (Homo sapiens); test: basic fibroblast growth factor binding to printed compounds – biochemical, small-molecule microarray, 635/667 nm fluorescence, primary screen (AID 1133); settings: FGF2, fluorescence 635/667, higher = more signal
REPORTED_ENDPOINT: composite z-score
API note: the answer field is a bare number with no unit suffix.

Problem: Write down the reported composite z-score of O=C1C2C=CC(C(O)c3c(F)cccc3Cl)N(Nc3ccc([N+](=O)[O-])cc3)C2C(=O)N1c1ccccc1 (centres undefined) , test system: Fibroblast growth factor 2 (Homo sapiens).
Solution: 0.589

Problem: What would you report for COc1ccc(C(=O)Nc2ccc(CN3C(=O)[C@@]4(O[C@@H](CCn5cc(CCO)nn5)[C@H]([Si](C)(C)c5ccc(OC)cc5)[C@H]4C)c4ccccc43)cc2)cc1 ?
Solution: 1.21

Problem: Please give the result for CCCCC(O)C1C=CC2C(=O)N(c3ccccc3)C(=O)C2N1Nc1ccc(C#N)cc1 (centres undefined) too.
Solution: 0.0696

Problem: What about COC(=O)[C@H](Cc1ccccc1)N1CC2=CCCC=C[C@@H]2[C@H]1[C@H](O)Cc1ccccc1 ?
Solution: 0.122

----------
biological target: Calmodulin-1 (Homo sapiens) (UniProt P0DP23); test: small molecules binding Ca-loaded calmodulin-1 – biochemical, small-molecule microarray, Cy5-labelled CALM1, plus calcium, artefact control for SMM control-protein annotation, profiling panel (AID 1112); conditions: Cy5-CALM1 binding fluorescence, higher = more signal;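 note: score merges spot fluorescence with signal to noise from triplicate slides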
REPORTED_ENDPOINT: composite z-score
In your answer, state the number alone without any accompanying words.

// solved cases for composite z-score follow
COMPOUND	RESULT_VALUE
COc1ccccc1CN1C(=O)c2ccccc2[C@](Cc2ccccc2I)(C(=O)NCC(C)C)[C@@H]1c1ccc(CO)cc1	-0.18
C=C(CCCC)C(=O)CC[C@H](OC(=O)c1ccccc1-c1ccccc1C(=O)O)c1ccc(OCCO)cc1	-0.898
CC(=O)OCC1C2CC[C@H]3C(OCc4ccc(F)cc4C(F)(F)F)OC[C@]4(C)[C@H]3C2=C(CN4C(=O)OC(C)(C)C)[C@H](C)C1COC(C)=O (some centres undefined)	1.19

Problem: Query: composite z-score; subject: C=CC[C@@]12N=C(c3ccc(OCCCO)cc3)O[C@@H]1c1ccccc1N(CCC)C2=O
Solution: -0.242

All values here come from PubChem BioAssay.
